Test system: DMS-114 (Small Cell Lung Carcinoma)
TEST_DETAILS: combination Emax (second highest fraction inhibited in the dose matrix, 72 h); higher = more inhibition; extreme values may be limits of the assay
Tick MET if combination Emax is 0.5 or greater. Tick NOT MET if combination Emax is less than 0.5.

Prompt: Check the entry NC1(C(=O)N[C@@H](CCO)c2ccc(Cl)cc2)CCN(c2ncnc3[nH]ccc23)CC1 [Capivasertib] + CC(=O)c1c(C)c2cnc(Nc3ccc(N4CCNCC4)cn3)nc2n(C2CCCC2)c1=O [Palbociclib] (first compound max 10 µM, 7x7, partner max 10 µM) : does combination Emax equal or exceed 0.5?
Response: NOT MET

Prompt: Would you say C[C@@H](Nc1cc(F)cc(F)c1)c1cc(C(=O)N(C)C)cc2c(=O)cc(N3CCOCC3)oc12 [AZD8186] + C1CN(CCC1(C(=O)N[C@@H](CCO)C2=CC=C(C=C2)Cl)N)C3=NC=NC4=C3C=CN4 [AZD5363] (first compound max 10 µM, 7x7, partner max 10 µM) shows combination Emax at minimum 0.5?
Response: NOT MET

Prompt: Decide: is the reported value of combination Emax for COc1nnc2ccc(N3CCC(c4ccc(OCCN5CCN(C)C(=O)[C@H]5C)cc4)CC3)nn12 [AZD5153] + C=CCn1c(=O)c2cnc(Nc3ccc(N4CCN(C)CC4)cc3)nc2n1-c1cccc(C(C)(C)O)n1 [AZD1775] (first compound max 1 µM, partner max 1 µM) equal to or greater than 0.5?
Response: MET

Prompt: Does the compound Cc1c2c(nn1C)CSCc1cc(n(C)n1)CSc1cc(c3ccccc3c1)OCCCc1c(C(=O)O)n(C)c3c-2c(Cl)ccc13 [AZD5991] + CN(C)CCCOc1ccc(-c2ccc3ncc4c(c3c2)n(C2CCOCC2)c(=O)n4C)cn1 [AZD0156] (first compound max 1 µM, 7x7, partner max 1 µM) have recorded combination Emax that is 0.5 or more?
Response: MET
